Assign kon to each entry below.
# measured on: T1, biotinylated CD3 epsilon:delta heterodimer protein (Amsbio AMS.CDD-H52WO) (Homo sapiens (Human), UniProt P07766 23-126; P04234 22-105)
# T1 construct: also called CD3 heterodimer
# assay details: BLI (Octet), CD3 on SA sensor, Fab analyte;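 also: biolayer interferometry with biotinylated CD3 epsilon:delta captured on streptavidin sensors, Fab analyte at several concentrations up to 300 nM, 100 s association then 300 s dissociation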
Numbers only, in M⁻¹ s⁻¹.

The following binders each have a reported value; give each one's kon.
1. huSP34.10.2 Fab-HF (Fab, V domains shown, also called HC10+LC2) VH: EVQLVESGGGLVQPGGSLRLSCAASGFTFSDYAMNWVRQAPGKGLEWVGRTRSKYNSYATYYAASVKGRFTISRDDSKNSLYLQMNSLKTEDTAVYYCVRHGNFGHSYVSWFAVWGQGTLVTVSS VL: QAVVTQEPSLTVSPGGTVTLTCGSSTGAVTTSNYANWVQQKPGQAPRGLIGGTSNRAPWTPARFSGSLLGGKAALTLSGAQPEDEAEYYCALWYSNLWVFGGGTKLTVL
2. huSP34.8.6 Fab-HF (Fab, V domains shown, also called HC8+LC6) VH: EVQLVESGGGLVQPGGSLRLSCAASGFTFSDYAMNWVRQAPGKGLEWVGRTRSKYNNYATYYAASVKGRFTISRDDSKNSLYLQMNSLKTEDTAVYYCVRHGNFGHSYVSWFAVWGQGTLVTVSS VL: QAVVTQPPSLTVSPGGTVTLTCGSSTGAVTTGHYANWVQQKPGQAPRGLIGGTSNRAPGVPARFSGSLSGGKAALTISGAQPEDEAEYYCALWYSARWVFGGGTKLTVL

Reply text:
1: 225000; 2: 367000
